B1: library; a variant is named by its letters at N, in order (parent)
chain: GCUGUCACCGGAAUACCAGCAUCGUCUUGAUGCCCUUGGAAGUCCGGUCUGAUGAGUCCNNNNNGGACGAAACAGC

- Variants of: B1
- methodDescription: normalized RNA/DNA level without ligand (relative to sTRSVctl = 100) (log10 (% of sTRSVctl)); higher = less ribozyme self-cleavage, higher mRNA level
- testParameters: HEK293T, reporter: mCherry (pCS4076), ligand present: no
quantityName: normalized RNA/DNA level without ligand (log10)
Form rule: numeric answer, no unit written next to it.

Record summary for GCUGUCACCGGAAUACCAGCAUCGUCUUGAUGCCCUUGGAAGUCCGGUCUGAUGAGUCCAUAGCGGACGAAACAGC [AUAGC] : reported normalized RNA/DNA level without ligand (log10) = 1.87

Record summary for GCUGUCACCGGAAUACCAGCAUCGUCUUGAUGCCCUUGGAAGUCCGGUCUGAUGAGUCCUCUGCGGACGAAACAGC [UCUGC] : reported normalized RNA/DNA level without ligand (log10) = 2.02

Record summary for GCUGUCACCGGAAUACCAGCAUCGUCUUGAUGCCCUUGGAAGUCCGGUCUGAUGAGUCCCGGACGGACGAAACAGC [CGGAC] : reported normalized RNA/DNA level without ligand (log10) = 1.8

Record summary for GCUGUCACCGGAAUACCAGCAUCGUCUUGAUGCCCUUGGAAGUCCGGUCUGAUGAGUCCAACCUGGACGAAACAGC [AACCU] : reported normalized RNA/DNA level without ligand (log10) = 1.95

Record summary for GCUGUCACCGGAAUACCAGCAUCGUCUUGAUGCCCUUGGAAGUCCGGUCUGAUGAGUCCCCGGCGGACGAAACAGC [CCGGC] : reported normalized RNA/DNA level without ligand (log10) = 1.97

Record summary for GCUGUCACCGGAAUACCAGCAUCGUCUUGAUGCCCUUGGAAGUCCGGUCUGAUGAGUCCCCGGUGGACGAAACAGC [CCGGU] : reported normalized RNA/DNA level without ligand (log10) = 1.84

Record summary for GCUGUCACCGGAAUACCAGCAUCGUCUUGAUGCCCUUGGAAGUCCGGUCUGAUGAGUCCCGCCCGGACGAAACAGC [CGCCC] : reported normalized RNA/DNA level without ligand (log10) = 2.02

Record summary for GCUGUCACCGGAAUACCAGCAUCGUCUUGAUGCCCUUGGAAGUCCGGUCUGAUGAGUCCAGAGUGGACGAAACAGC [AGAGU] : reported normalized RNA/DNA level without ligand (log10) = 1.58

Record summary for GCUGUCACCGGAAUACCAGCAUCGUCUUGAUGCCCUUGGAAGUCCGGUCUGAUGAGUCCAAGCUGGACGAAACAGC [AAGCU] : reported normalized RNA/DNA level without ligand (log10) = 1.78

Record summary for GCUGUCACCGGAAUACCAGCAUCGUCUUGAUGCCCUUGGAAGUCCGGUCUGAUGAGUCCUCACAGGACGAAACAGC [UCACA] : reported normalized RNA/DNA level without ligand (log10) = 1.48

Record summary for GCUGUCACCGGAAUACCAGCAUCGUCUUGAUGCCCUUGGAAGUCCGGUCUGAUGAGUCCUAUCCGGACGAAACAGC [UAUCC] : reported normalized RNA/DNA level without ligand (log10) = 2.02

Record summary for GCUGUCACCGGAAUACCAGCAUCGUCUUGAUGCCCUUGGAAGUCCGGUCUGAUGAGUCCAGGGAGGACGAAACAGC [AGGGA] : reported normalized RNA/DNA level without ligand (log10) = 1.48

Record summary for GCUGUCACCGGAAUACCAGCAUCGUCUUGAUGCCCUUGGAAGUCCGGUCUGAUGAGUCCCAUAAGGACGAAACAGC [CAUAA] : reported normalized RNA/DNA level without ligand (log10) = 1.06

Record summary for GCUGUCACCGGAAUACCAGCAUCGUCUUGAUGCCCUUGGAAGUCCGGUCUGAUGAGUCCUGCGCGGACGAAACAGC [UGCGC] : reported normalized RNA/DNA level without ligand (log10) = 1.96

Record summary for GCUGUCACCGGAAUACCAGCAUCGUCUUGAUGCCCUUGGAAGUCCGGUCUGAUGAGUCCAUGUCGGACGAAACAGC [AUGUC] : reported normalized RNA/DNA level without ligand (log10) = 1.84

Record summary for GCUGUCACCGGAAUACCAGCAUCGUCUUGAUGCCCUUGGAAGUCCGGUCUGAUGAGUCCAGUACGGACGAAACAGC [AGUAC] : reported normalized RNA/DNA level without ligand (log10) = 1.83

Record summary for GCUGUCACCGGAAUACCAGCAUCGUCUUGAUGCCCUUGGAAGUCCGGUCUGAUGAGUCCGAGAUGGACGAAACAGC [GAGAU] : reported normalized RNA/DNA level without ligand (log10) = 1.73

Record summary for GCUGUCACCGGAAUACCAGCAUCGUCUUGAUGCCCUUGGAAGUCCGGUCUGAUGAGUCCCCCGCGGACGAAACAGC [CCCGC] : reported normalized RNA/DNA level without ligand (log10) = 2.09

Record summary for GCUGUCACCGGAAUACCAGCAUCGUCUUGAUGCCCUUGGAAGUCCGGUCUGAUGAGUCCACAGGGGACGAAACAGC [ACAGG] : reported normalized RNA/DNA level without ligand (log10) = 1.78

Record summary for GCUGUCACCGGAAUACCAGCAUCGUCUUGAUGCCCUUGGAAGUCCGGUCUGAUGAGUCCCCCAUGGACGAAACAGC [CCCAU] : reported normalized RNA/DNA level without ligand (log10) = 1.9

Record summary for GCUGUCACCGGAAUACCAGCAUCGUCUUGAUGCCCUUGGAAGUCCGGUCUGAUGAGUCCUUCCCGGACGAAACAGC [UUCCC] : reported normalized RNA/DNA level without ligand (log10) = 1.99

Record summary for GCUGUCACCGGAAUACCAGCAUCGUCUUGAUGCCCUUGGAAGUCCGGUCUGAUGAGUCCUUUAUGGACGAAACAGC [UUUAU] : reported normalized RNA/DNA level without ligand (log10) = 1.93

Record summary for GCUGUCACCGGAAUACCAGCAUCGUCUUGAUGCCCUUGGAAGUCCGGUCUGAUGAGUCCAGCCUGGACGAAACAGC [AGCCU] : reported normalized RNA/DNA level without ligand (log10) = 1.91

Record summary for GCUGUCACCGGAAUACCAGCAUCGUCUUGAUGCCCUUGGAAGUCCGGUCUGAUGAGUCCAACAAGGACGAAACAGC [AACAA] : reported normalized RNA/DNA level without ligand (log10) = 1.45

Record summary for GCUGUCACCGGAAUACCAGCAUCGUCUUGAUGCCCUUGGAAGUCCGGUCUGAUGAGUCCCAUUAGGACGAAACAGC [CAUUA] : reported normalized RNA/DNA level without ligand (log10) = 1.22

Record summary for GCUGUCACCGGAAUACCAGCAUCGUCUUGAUGCCCUUGGAAGUCCGGUCUGAUGAGUCCUCACCGGACGAAACAGC [UCACC] : reported normalized RNA/DNA level without ligand (log10) = 1.93

Record summary for GCUGUCACCGGAAUACCAGCAUCGUCUUGAUGCCCUUGGAAGUCCGGUCUGAUGAGUCCGAUAUGGACGAAACAGC [GAUAU] : reported normalized RNA/DNA level without ligand (log10) = 1.75

Record summary for GCUGUCACCGGAAUACCAGCAUCGUCUUGAUGCCCUUGGAAGUCCGGUCUGAUGAGUCCGAAAUGGACGAAACAGC [GAAAU] : reported normalized RNA/DNA level without ligand (log10) = 1.71

Record summary for GCUGUCACCGGAAUACCAGCAUCGUCUUGAUGCCCUUGGAAGUCCGGUCUGAUGAGUCCUACAUGGACGAAACAGC [UACAU] : reported normalized RNA/DNA level without ligand (log10) = 1.91

Record summary for GCUGUCACCGGAAUACCAGCAUCGUCUUGAUGCCCUUGGAAGUCCGGUCUGAUGAGUCCUGCAUGGACGAAACAGC [UGCAU] : reported normalized RNA/DNA level without ligand (log10) = 1.85

Record summary for GCUGUCACCGGAAUACCAGCAUCGUCUUGAUGCCCUUGGAAGUCCGGUCUGAUGAGUCCACUCAGGACGAAACAGC [ACUCA] : reported normalized RNA/DNA level without ligand (log10) = 1.92

Record summary for GCUGUCACCGGAAUACCAGCAUCGUCUUGAUGCCCUUGGAAGUCCGGUCUGAUGAGUCCCUGUUGGACGAAACAGC [CUGUU] : reported normalized RNA/DNA level without ligand (log10) = 1.81

Record summary for GCUGUCACCGGAAUACCAGCAUCGUCUUGAUGCCCUUGGAAGUCCGGUCUGAUGAGUCCGACAAGGACGAAACAGC [GACAA] : reported normalized RNA/DNA level without ligand (log10) = 1.56

Record summary for GCUGUCACCGGAAUACCAGCAUCGUCUUGAUGCCCUUGGAAGUCCGGUCUGAUGAGUCCACGCUGGACGAAACAGC [ACGCU] : reported normalized RNA/DNA level without ligand (log10) = 1.91

Record summary for GCUGUCACCGGAAUACCAGCAUCGUCUUGAUGCCCUUGGAAGUCCGGUCUGAUGAGUCCCACAUGGACGAAACAGC [CACAU] : reported normalized RNA/DNA level without ligand (log10) = 1.68

Record summary for GCUGUCACCGGAAUACCAGCAUCGUCUUGAUGCCCUUGGAAGUCCGGUCUGAUGAGUCCCCUGAGGACGAAACAGC [CCUGA] : reported normalized RNA/DNA level without ligand (log10) = 1.92

Record summary for GCUGUCACCGGAAUACCAGCAUCGUCUUGAUGCCCUUGGAAGUCCGGUCUGAUGAGUCCAAUCCGGACGAAACAGC [AAUCC] : reported normalized RNA/DNA level without ligand (log10) = 1.95

Record summary for GCUGUCACCGGAAUACCAGCAUCGUCUUGAUGCCCUUGGAAGUCCGGUCUGAUGAGUCCCGAGUGGACGAAACAGC [CGAGU] : reported normalized RNA/DNA level without ligand (log10) = 1.9

Record summary for GCUGUCACCGGAAUACCAGCAUCGUCUUGAUGCCCUUGGAAGUCCGGUCUGAUGAGUCCUUAUGGGACGAAACAGC [UUAUG] : reported normalized RNA/DNA level without ligand (log10) = 1.91

Record summary for GCUGUCACCGGAAUACCAGCAUCGUCUUGAUGCCCUUGGAAGUCCGGUCUGAUGAGUCCAGUUAGGACGAAACAGC [AGUUA] : reported normalized RNA/DNA level without ligand (log10) = 1.68

Record summary for GCUGUCACCGGAAUACCAGCAUCGUCUUGAUGCCCUUGGAAGUCCGGUCUGAUGAGUCCUAAGCGGACGAAACAGC [UAAGC] : reported normalized RNA/DNA level without ligand (log10) = 1.92

Record summary for GCUGUCACCGGAAUACCAGCAUCGUCUUGAUGCCCUUGGAAGUCCGGUCUGAUGAGUCCUCCUUGGACGAAACAGC [UCCUU] : reported normalized RNA/DNA level without ligand (log10) = 1.94

Record summary for GCUGUCACCGGAAUACCAGCAUCGUCUUGAUGCCCUUGGAAGUCCGGUCUGAUGAGUCCUCAAAGGACGAAACAGC [UCAAA] : reported normalized RNA/DNA level without ligand (log10) = 1.3

Record summary for GCUGUCACCGGAAUACCAGCAUCGUCUUGAUGCCCUUGGAAGUCCGGUCUGAUGAGUCCCGGGAGGACGAAACAGC [CGGGA] : reported normalized RNA/DNA level without ligand (log10) = 1.74

Record summary for GCUGUCACCGGAAUACCAGCAUCGUCUUGAUGCCCUUGGAAGUCCGGUCUGAUGAGUCCACAGUGGACGAAACAGC [ACAGU] : reported normalized RNA/DNA level without ligand (log10) = 1.65

Record summary for GCUGUCACCGGAAUACCAGCAUCGUCUUGAUGCCCUUGGAAGUCCGGUCUGAUGAGUCCCACGAGGACGAAACAGC [CACGA] : reported normalized RNA/DNA level without ligand (log10) = 1.76

Record summary for GCUGUCACCGGAAUACCAGCAUCGUCUUGAUGCCCUUGGAAGUCCGGUCUGAUGAGUCCAACUUGGACGAAACAGC [AACUU] : reported normalized RNA/DNA level without ligand (log10) = 1.89

Record summary for GCUGUCACCGGAAUACCAGCAUCGUCUUGAUGCCCUUGGAAGUCCGGUCUGAUGAGUCCUGAACGGACGAAACAGC [UGAAC] : reported normalized RNA/DNA level without ligand (log10) = 1.84

Record summary for GCUGUCACCGGAAUACCAGCAUCGUCUUGAUGCCCUUGGAAGUCCGGUCUGAUGAGUCCUACGUGGACGAAACAGC [UACGU] : reported normalized RNA/DNA level without ligand (log10) = 1.92

Record summary for GCUGUCACCGGAAUACCAGCAUCGUCUUGAUGCCCUUGGAAGUCCGGUCUGAUGAGUCCAAUUUGGACGAAACAGC [AAUUU] : reported normalized RNA/DNA level without ligand (log10) = 1.92

Record summary for GCUGUCACCGGAAUACCAGCAUCGUCUUGAUGCCCUUGGAAGUCCGGUCUGAUGAGUCCGCAGAGGACGAAACAGC [GCAGA] : reported normalized RNA/DNA level without ligand (log10) = 1.66

Record summary for GCUGUCACCGGAAUACCAGCAUCGUCUUGAUGCCCUUGGAAGUCCGGUCUGAUGAGUCCAAUACGGACGAAACAGC [AAUAC] : reported normalized RNA/DNA level without ligand (log10) = 1.85

Record summary for GCUGUCACCGGAAUACCAGCAUCGUCUUGAUGCCCUUGGAAGUCCGGUCUGAUGAGUCCUAACAGGACGAAACAGC [UAACA] : reported normalized RNA/DNA level without ligand (log10) = 1.55
